Would you mind telling me the reported GI50 of each entry?
System: MALME-3M melanoma
Assay procedure: NCI tumour cell line growth inhibition, 48 h

Some compounds with known GI50 results, for comparison:
CCCCNCC(O)c1cc2c(Cl)cc(Cl)cc2c2cc(C(F)(F)F)ccc12 (centres undefined)
2010 nM
CC(=O)c1nc2ccccc2n1CCN1CCN(C)CC1
2380 nM
Cc1cccc2c(C(=O)O[C@H](C(N)=O)[C@]3(C)CO3)cccc12
3970 nM
c1ccc(-c2c(-c3ccccc3)[n+](Cc3ccc4ccccc4c3)c(-c3cccc4ccccc34)n2Cc2ccc3ccccc3c2)cc1
91 nM
O=C(NCCCCNC(=O)OCc1ccc2c(Cl)cc(Cl)c(O)c2n1)OCc1ccc2c(Cl)cc(Cl)c(O)c2n1
2870 nM
Cn1ncc2c(Sc3ccc(Cl)cc3)ncnc21
57400 nM
CCCCCCCCc1ccc(OCCOCC[N+](C)(C)CC)cc1 (tested in a mixture with another compound)
1930 nM
COCC(=O)Oc1cc(-c2ccc(C)cc2C)c(OC(=O)COC)c(-c2ccc(C)cc2C)c1
9200 nM

Provide reported GI50 for each item, in the same order as listed.
1. Cc1cc(-c2ncc(-c3cccnc3)cc2/C=C/c2ccccc2)cnc1-c1cccnc1
2. Nc1cc2c([nH]c[n+]2CC#CCCl)c(SCC#CCCl)n1

["2810 nM", "1090 nM"]

* * *

System: SF-539 CNS
Assay procedure: NCI tumour cell line growth inhibition, 48 h; in the data active = GI50 below about 0.43 µM; inactive = the rest
Allowed answers: active, inactive

O=S1CCN(Cc2ccc(-c3ccc4ncnc(Nc5ccc(OCc6ccccc6)c(Cl)c5)c4c3)o2)CC1
inactive
O=S1CCN(Cc2ccc(-c3ccc4ncnc(Nc5ccc(OCc6cccc(F)c6)c(Cl)c5)c4c3)o2)CC1
inactive
Nc1cc2c([nH]c[n+]2CC#CCCl)c(SCC#CCCl)n1
inactive

Just curious, what result did Cc1cccc2c(C(=O)O[C@H](C(N)=O)[C@]3(C)CO3)cccc12 get here?
inactive

Just curious, what result did Cc1ccc(-c2c(C#N)[n+](=O)c3cc(Cl)c(Cl)cc3n2[O-])cc1 get here?
inactive

Just curious, what result did NCCOc1ncccc1/C=C1\c2ccccc2-c2ccc(F)cc21 get here?
inactive

Just curious, what result did COc1ccc(/C=C(\C#N)c2ccc(OC)cc2)cc1 get here?
inactive

Just curious, what result did COc1cc(-c2nc3ccccc3s2)ccc1OCCCCCOc1cc2c(cc1OC)C(=O)N1CCC[C@H]1C=N2 get here?
active

Just curious, what result did COC1=CC(c2ccc[nH]2)=N/C1=C\c1[nH]c(C)c(C(=O)CCCCC(=O)NCc2ccccc2)c1C get here?
inactive

Just curious, what result did COc1cc(-c2nc3ccc(C)cc3[nH]2)ccc1OCC(=O)N=Nc1c(O)[nH]c2ccc(Cl)cc12 get here?
inactive

Just curious, what result did Cn1ncc2c(Sc3ccc(Cl)cc3)ncnc21 get here?
inactive

Just curious, what result did NS(=O)(=O)N(c1cc(C(F)(F)F)cc(C(F)(F)F)c1)C1CCN(Cc2ccc(F)cc2)CC1 get here?
inactive

Just curious, what result did Cc1cc2c([nH]1)CSc1cc(S(=O)(=O)c3ccccc3)c(=O)[nH]c1-2 get here?
active

* * *

System: NCI-H23 lung
Assay procedure: NCI tumour cell line growth inhibition, 48 h
Observed property: log10 of TGI (log10 of the value in µM)
All values: log10 TGI [µM].

Some compounds with known log10 of TGI results, for comparison:
N#Cc1c(-c2ccccc2)cc(-c2ccccc2)n(CC(=O)NO)c1=O
1.91
NCCOc1ncccc1/C=C1\c2ccccc2-c2ccc(F)cc21
0.40
NC(=O)SCC(=O)Nc1ccc2cccc3c2c1CC3
1.78
Cc1[nH]c2nccn2c(=O)c1CCCl
1.62

Provide reported log10 of TGI for each item, in the same order as listed.
1. COc1cccc2c1-c1ccccc1[C@H](Nc1ccccc1)[C@@]2(C)O
2. NC(N)=NS(=O)(=O)c1ccc(Nc2c3ccccc3nc3c(C(=O)NNCCO)cccc23)cc1

1.37
-0.55
